Measured values drawn from ChEMBL document CHEMBL1124015 for this set.

subject_of_test: Cholecystokinin receptor type A (Rattus norvegicus, UniProt P30551)
Sequence (P30551 whole entry): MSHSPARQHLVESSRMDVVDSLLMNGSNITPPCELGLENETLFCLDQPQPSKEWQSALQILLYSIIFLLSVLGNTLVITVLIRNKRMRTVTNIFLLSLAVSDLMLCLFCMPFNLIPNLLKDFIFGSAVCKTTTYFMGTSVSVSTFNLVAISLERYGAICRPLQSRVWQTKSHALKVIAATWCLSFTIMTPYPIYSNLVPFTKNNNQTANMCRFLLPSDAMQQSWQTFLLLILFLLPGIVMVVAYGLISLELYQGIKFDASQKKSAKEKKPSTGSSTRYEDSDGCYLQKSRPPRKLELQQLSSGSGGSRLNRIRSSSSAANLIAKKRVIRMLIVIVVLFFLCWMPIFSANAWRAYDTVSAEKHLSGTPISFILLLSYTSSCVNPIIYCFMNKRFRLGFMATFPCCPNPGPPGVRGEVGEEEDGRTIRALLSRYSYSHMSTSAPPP
method_notes: Half-maximal inhibition of [125I]CCK-33 binding to cholecystokinin A receptor from rat pancreatic tissue
pIC50: −log10 of the molar value.
Decide using pIC50: a value greater than or equal to 6 is Met, a smaller one is Not met.

INSERT INTO assay_data (molecule, category) VALUES
  ('O=C1Nc2ccccc2C(c2ccccc2F)=NC1NC(=O)C(O)c1ccccc1 (stereo not given)', 'Not met'),
  ('CN(C(=O)c1cc2ccccc2[nH]1)C1N=C(c2ccccc2)c2ccccc2NC1=O (stereo not given)', 'Not met'),
  ('CN1C(=O)CN=C(c2ccccc2)c2ccccc21', 'Not met'),
  ('O=C(NC1N=C(c2ccccc2F)c2ccccc2NC1=O)c1ccsc1 (stereo not given)', 'Met'),
  ('CN1C(=O)C(NC(=O)c2cccc(I)c2)N=C(c2ccccc2F)c2ccccc21 (stereo not given)', 'Met'),
  ('COc1ccc2[nH]c(C(=O)NC3N=C(c4ccccc4F)c4ccccc4NC3=O)cc2c1 (stereo not given)', 'Met'),
  ('O=C(NC1N=C(c2ccccc2F)c2ccccc2N(C(=O)c2ccc(Cl)cc2)C1=O)c1ccc(Cl)cc1 (stereo not given)', 'Met'),
  ('O=C(NC1N=C(c2ccccc2)c2ccccc2NC1=O)c1ccc(C(F)(F)F)cc1 (stereo not given)', 'Met'),
  ('CN1C(=O)[C@@H](NC(=O)[C@H](N)Cc2ccccc2)N=C(c2ccccc2)c2ccccc21', 'Not met'),
  ('O=C(/C=C/c1ccccc1)NC1N=C(c2ccccc2F)c2ccccc2NC1=O (stereo not given)', 'Met');

* * *

A collection of compounds and their measured IC50
subject_of_test: GABA-A receptor; anion channel
method_notes: Inhibition of [3H]flunitrazepam binding to GABA-A benzodiazepine receptor of guinea brain
Parameters: species or system Cavia porcellus
measured_attribute: IC50 (µM)

INSERT INTO results (compound, measured_attribute, comparator, endpoint_value) VALUES
  ('CN1C(=O)[C@@H](N)N=C(c2ccccc2)c2ccccc21', 'IC50', '>', 100),
  ('CN1C(=O)[C@@H](NC(=O)c2ccc(Br)cc2)N=C(c2ccccc2)c2ccccc21', 'IC50', '>', 100),
  ('CN1C(=O)C(NC(=O)c2cc3ccccc3n2C)N=C(c2ccccc2)c2ccccc21 (stereo not given)', 'IC50', '>', 100),
  ('CN1C(=O)[C@H](N)N=C(c2ccccc2)c2ccccc21', 'IC50', '=', 8.5),
  ('CN1C(=O)[C@H](NC(=O)c2ccc(Br)cc2)N=C(c2ccccc2)c2ccccc21', 'IC50', '=', 15);

* * *

Tested on: Mus musculus
method_notes: Ability to antagonize CCK-8 inhibition of charcoal meal gastric emptying in mice, after oral administration
Format: functional
conditions: Stomach
measured_attribute: ED50 (mg/kg)

INSERT INTO measurements (molecule, endpoint_value) VALUES
  ('CN1C(=O)C(NC(=O)c2cc3ccccc3[nH]2)N=C(c2ccccc2)c2ccccc21 (centres undefined)', 0.08),
  ('CN1C(=O)C(NC(=O)c2cc3ccccc3n2C)N=C(c2ccccc2)c2ccccc21 (centres undefined)', 1.9),
  ('CN1C(=O)[C@@H](NC(=O)c2ccc(Br)cc2)N=C(c2ccccc2)c2ccccc21', 0.4),
  ('CN1C(=O)[C@@H](NC(=O)c2cc3ccccc3[nH]2)N=C(c2ccccc2)c2ccccc21 [DEVAZEPIDE]', 0.04),
  ('O=C(NC1N=C(c2ccccc2F)c2ccccc2NC1=O)c1ccc(Cl)cc1 (centres undefined)', 1.4),
  ('O=C(NC1N=C(c2ccccc2)c2ccccc2NC1=O)c1cc2ccccc2[nH]1 (centres undefined)', 0.4),
  ('O=C(O)CN1C(=O)C(NC(=O)c2cc3ccccc3[nH]2)N=C(c2ccccc2)c2ccccc21 (centres undefined)', 0.5),
  ('CN1C(=O)[C@H](NC(=O)c2cc3ccccc3[nH]2)N=C(c2ccccc2)c2ccccc21', 0.4),
  ('CN1C(=O)C(NC(=O)c2ccc(Cl)cc2)N=C(c2ccccc2F)c2ccccc21 (centres undefined)', 0.2);
